test: in vitro; settings: Syrian hamster
The following compounds are listed with their measured CC50 values.
Provide only the numeric value, understood in µM.

COMPOUND	CC50, µM
Cc1oncc1C(=O)Nc1ccc(C(F)(F)F)cc1 [Leflunomide, leflunomide]	163

Okay, next one:
Returns the measured CC50 for the input compound. Input: C/C(O)=C(\C#N)C(=O)Nc1ccc(C(F)(F)F)cc1 [Teriflunomide, teriflunomide] 110

// provenance: patent US20230097553A1
